All values here come from patent US20230293535A1.

Tested on: WT EGFR cell line A-431
Assay: Cell proliferation, WT EGFR A431 (CellTiter-Glo, 72 h);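 further: proliferation from a luminescent ATP viability signal, expressed as 100 × (treated minus time-zero plate) over (DMSO control minus time-zero plate), cells grown with 10% FBS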
Assay type: cell-based
Conditions: Homo sapiens, A-431, 72 h, A431, 72 h proliferation; read-out: EGFR WT A431 GI50
measurement.label: GI50 (nM)

C=CC(=O)Nc1cc(Nc2ncnc(Nc3cc(Cl)c(F)cc3C(C)(O)CC)n2)c(OC)cc1N1CCC[C@H]1CN(C)C (stereo partly shown) : 220

(I) C=CC(=O)Nc1cc(Nc2nccc(Nc3cc(Cl)c(F)cc3C(C)(O)C(F)(F)F)n2)c(OC)cc1N1CC[C@@H](N(C)C)C1 (stereo partly shown)
(II) C=CC(=O)Nc1cc(Nc2ncnc(Nc3cc(Cl)c(F)cc3C(C)(C)O)n2)c(OC)cc1N1CC[C@@H](NC)C1
(Q) Would you mind telling me which has the lower recorded GI50 between I and II ? // respond with label for picked entry
(A) II
(II: 8 nM, I: 40.6 nM)

* * *

Test system: Ba/F3 EGFR ASV ins cells
Experiment: Cell proliferation, Ba/F3 EGFR ASV ins (CellTiter-Glo, 72 h);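 further: IL3-independent Ba/F3 cells transduced with EGFR V769_D770insASV, cellular ATP luminescence after compound exposure, growth relative to DMSO control with the day-0 baseline reading subtracted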
Format: cell-based
Conditions: Ba/F3 EGFR, 72 h, Ba/F3 EGFR ASV ins, 72 h proliferation; read-out: EGFR Exon20 ASV insertion GI50
measurement.label: GI50 (nM)

C=CC(=O)Nc1cc(Nc2ncnc(Nc3cc(F)c(F)cc3C(C)(C)O)n2)c(OC)cc1N1CC(CN(C)C)C1 : 159
C=CC(=O)Nc1cc(Nc2ncnc(Nc3cc(Cl)c(F)cc3C(C)(C)O)n2)c(OC)cc1N(C)CCN1CCCCC1 : 99.5
C=CC(=O)Nc1cc(Nc2nccc(Nc3cc(Cl)c(F)cc3C(C)(C)O)n2)c(OC)cc1N1CC[C@@H](CN(C)C)C1 : 90.9
C=CC(=O)Nc1cc(Nc2ncnc(Nc3cc4cc[nH]c4cc3C(C)(C)O)n2)c(OC)cc1N(C)CCN(C)C : 16

(A) C=CC(=O)Nc1cc(Nc2ncnc(Nc3cc(F)c(F)cc3C(C)(O)CC)n2)c(OC)cc1N1CCC[C@@H]1CN(C)C (some centres unmarked)
(B) C=CC(=O)Nc1cc(Nc2ncc(Cl)c(Nc3cc(Cl)c(F)cc3C(C)(C)O)n2)c(OC)cc1N1CC[C@@H](N(C)C)C1
(Q) Sorting by GI50 in descending order, would A or B appear first? Your answer should be the label attached to the chosen record.
(A) B
(B: 86.6 nM, A: 11.4 nM)

(I) C=CC(=O)Nc1cc(Nc2ncnc(Nc3cc(Cl)c(F)cc3C(C)(C)O)n2)c(OC)cc1N(C)C[C@H]1CCCN1C
(II) C=CC(=O)Nc1cc(Nc2ncnc(Nc3ccc(F)c(F)c3C(C)(C)O)n2)c(OC)cc1N(C)CCN(C)C
(III) C=CC(=O)Nc1cc(Nc2ncnc(Nc3cc(Cl)c(F)cc3C(C)(O)CC)n2)c(OC)cc1N1CCC[C@H]1CN(C)C (some centres unmarked)
(Q) Write the entries in order, lowest recorded GI50 first. Respond with the label ranking, as requested.
(A) I, II, III
(I: 25.9 nM, II: 191 nM, III: 395 nM)

(a) C=CC(=O)Nc1cc(Nc2ncnc(Nc3cc(Cl)c(F)cc3C(C)(C)O)n2)c(OC)cc1N1CC[C@@H](N(C)C)C1
(b) C=CC(=O)Nc1cc(Nc2ncnc(Nc3cc(Cl)c(F)cc3C(C)(C)O)n2)c(OC)cc1N(C)CCN1CCCC1
(Q) Which shows the larger GI50 value: a or b ? # respond with the chosen item's label
(A) b
(b: 45.2 nM, a: 22.1 nM)
